Tested on: Noggin (protein binding on small-molecule microarray)
Test: Noggin binders on small-molecule microarray, primary screen, biochemical, 635/667 nm fluorescence (AID 1095);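 further: score merges 667 nm feature fluorescence with signal to noise over triplicate slides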
Settings: 635 nm fluorescence, higher = more signal
Respond with YES for composite z-score values of 0.6 and above, NO for values below.

Examples from the recorded data:
C=CCN1C(=O)[C@@]2(Cc3ccccc31)N=C(c1ccc(OCCCO)cc1)O[C@H]2c1ccccc1    YES
COCCOC(=O)N1C(=O)[C@@]2(c3cc(C#CCCO)ccc31)[C@H](C(=O)N1CCCCCCC1)[C@H]1C(=O)O[C@H](c3ccccc3)[C@H](c3ccccc3)N1[C@@H]2c1ccc(OCCO)cc1    YES
COc1cccc(-c2cccc(=O)o2)c1    NO
CCOC(=O)C1=C[C@@H](C(C)(C)C)N(S(=O)(=O)c2ccc(C)cc2)[C@H]1c1ccc(F)cc1    YES
C=C(CC1([C@@H](NP(=O)(c2ccccc2)c2ccccc2)[C@H]2C[C@@H]2CCCC)CC1)c1ccccc1    NO

-- ask Decide: is the reported value of composite z-score for O=C1C[C@@](C(=O)NCC(F)(F)F)(c2ccc([N+](=O)[O-])cc2)[C@@H](c2ccc(CO)cc2I)N1C1CCCCC1 equal to or greater than 0.6?
-- reply NO

-- ask Decide: is the reported value of composite z-score for COCCOC(=O)N1C(=O)[C@@]2(c3cc(C#CCC(C(=O)OC)C(=O)OC)ccc31)[C@H](c1ccccc1OCCO)N1[C@H](c3ccccc3)[C@H](c3ccccc3)OC(=O)[C@H]1[C@@H]2C(=O)NC[C@H](O)c1ccccc1 equal to or greater than 0.6?
-- reply YES

###

Biological target: Epidermal growth factor receptor (Homo sapiens) (UniProt P00533)
Sequence (P00533 whole entry, looked up): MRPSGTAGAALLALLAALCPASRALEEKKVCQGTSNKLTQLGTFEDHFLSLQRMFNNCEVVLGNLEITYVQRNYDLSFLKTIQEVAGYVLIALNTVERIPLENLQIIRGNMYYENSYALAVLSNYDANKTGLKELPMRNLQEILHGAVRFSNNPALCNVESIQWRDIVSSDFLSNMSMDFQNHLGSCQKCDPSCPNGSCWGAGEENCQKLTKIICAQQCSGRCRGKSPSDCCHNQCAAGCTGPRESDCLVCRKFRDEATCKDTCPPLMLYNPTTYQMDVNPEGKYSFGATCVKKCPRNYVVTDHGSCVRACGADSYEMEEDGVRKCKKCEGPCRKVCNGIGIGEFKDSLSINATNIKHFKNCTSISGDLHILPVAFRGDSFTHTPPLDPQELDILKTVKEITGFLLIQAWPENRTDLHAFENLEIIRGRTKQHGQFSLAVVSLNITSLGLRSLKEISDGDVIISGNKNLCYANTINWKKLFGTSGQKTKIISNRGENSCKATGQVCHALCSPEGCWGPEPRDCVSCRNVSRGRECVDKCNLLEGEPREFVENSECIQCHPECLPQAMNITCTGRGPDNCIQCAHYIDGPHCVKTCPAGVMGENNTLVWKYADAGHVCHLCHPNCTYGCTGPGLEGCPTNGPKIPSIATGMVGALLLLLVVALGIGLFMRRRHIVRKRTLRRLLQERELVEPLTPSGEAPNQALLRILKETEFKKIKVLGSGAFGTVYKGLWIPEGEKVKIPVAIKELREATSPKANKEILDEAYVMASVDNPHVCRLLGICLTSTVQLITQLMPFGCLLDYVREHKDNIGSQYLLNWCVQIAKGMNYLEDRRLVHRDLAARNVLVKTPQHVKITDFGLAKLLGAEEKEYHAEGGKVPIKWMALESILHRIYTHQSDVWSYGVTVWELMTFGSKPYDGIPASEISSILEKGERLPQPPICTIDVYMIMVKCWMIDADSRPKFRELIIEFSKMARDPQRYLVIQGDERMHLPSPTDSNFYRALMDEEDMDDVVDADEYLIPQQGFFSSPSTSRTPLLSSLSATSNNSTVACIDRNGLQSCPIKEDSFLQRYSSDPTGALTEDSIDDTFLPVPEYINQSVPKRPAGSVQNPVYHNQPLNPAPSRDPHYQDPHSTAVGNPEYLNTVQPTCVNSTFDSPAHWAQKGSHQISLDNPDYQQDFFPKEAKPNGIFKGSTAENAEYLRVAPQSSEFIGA
Assay: EGFR binders on small-molecule microarrays, primary screen, biochemical, small-molecule microarray, 635 nm fluorescence (AID 1104);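 further: score merges 667 nm emission intensity with spot signal to noise over triplicate slides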
Conditions: EGFR binding, higher = more signal
Endpoint Label: composite z-score
No unit in the answer, only the number.

// below: answered compounds
CCOC(=O)C[C@H]1[C@H](OC(=O)c2ccc(-c3ccccc3)cc2)[C@@H](NC(=O)Cc2ccc(OC)cc2)c2cc(OCCCO)ccc2N1C(=O)c1ccccc1    -0.165
C=CCNC(=O)[C@H]1[C@@H]2C(=O)O[C@@H](c3ccccc3)[C@@H](c3ccccc3)N2[C@@H](c2ccccc2OCCO)[C@]12C(=O)Nc1ccc(C#CCC(C(=O)OC)C(=O)OC)cc12    1.15
C=C(CCCC)/C(=C/C[C@H](OC(=O)c1ccncc1)c1ccccc1OCCO)c1cnc2ccccc2c1    0.591
Cc1ccc(N2C(=O)c3ccccc3[C@@H](C(=O)NC3CC3)[C@@H]2c2ccc(CO)cc2)nc1    -1.58
COc1cc2c(cc1OC)CN(C(=O)[C@H]1[C@@H]3C(=O)O[C@@H](c4ccccc4)[C@@H](c4ccccc4)N3[C@@H](c3ccc(O)cc3)[C@]13C(=O)Nc1ccccc13)CC2    -0.0502

-- ask Fill in composite z-score for record CCS[C@H]1[C@@H](C(=O)O)[C@H](c2ccc(C)cc2)N(S(=O)(=O)c2ccc(C)cc2)[C@@H]1CC
-- reply 0.0771

-- ask Fill in composite z-score for record CCCCCN1CC=CC23O[C@@H]4C=CCCOC(=O)C4[C@H]2C(=O)N(CCCCCO)[C@@H]3C1=O (some centres not stated)
-- reply -1.16

-- ask Fill in composite z-score for record C=CC1(C(=O)OC)CC=C(C(=O)OC)CC1 (configuration not stated)
-- reply 0.478

-- ask Fill in composite z-score for record CC(=O)n1cc(C(O)C2C=CC3C(=O)N(c4ccccc4)C(=O)C3N2Nc2ccc([N+](=O)[O-])cc2)c2ccccc21 (configuration not stated)
-- reply -0.142

-- ask Fill in composite z-score for record C=CCOC(=O)[C@@H]1[C@H]2C(=O)O[C@H](c3ccccc3)[C@H](c3ccccc3)N2[C@H](c2ccc(OCCOC(=O)[C@H]3C[C@H]4C(=O)N5CCC[C@H]5C(=O)N4[C@H]3c3ccc(O)cc3)cc2)[C@@]12C(=O)Nc1ccc(I)cc12
-- reply 0.785
